Parameter: Drug uptake. Scope: all listed entries.
test system: Heart; test: Biodistribution in ICR mouse heart at 5 to 10 uCi, iv after 1 hr; type: ADME, organism-based; conditions: in vivo
Reply with just the number (in % ID/g).

Dear colleague, I am looking for the recorded Drug uptake of the following molecule: `CN(C)c1ccc(C#Cc2ccc(OCCOCC[18F])cc2)cc1`
2.48

Next:
Consider the molecule `CN(C)c1ccc(C#Cc2ccc(OCCOCCOCC[18F])cc2)cc1` and give its measured Drug uptake.
1.04

Can you share its Drug uptake? I mean this molecule: `CNc1ccc(C#Cc2ccc(OCCOCC[18F])cc2)cc1`
3.54

Give the measured Drug uptake of `CNc1ccc(C#Cc2ccc(OCCOCCOCC[18F])cc2)cc1` .
1.24
